Measured MBC, listed per entry for reference.
Tested on: Staphylococcus aureus
METHOD NOTES: Microbicidal activity against Staphylococcus aureus ATCC 6538 assessed as inhibition of colony growth incubated for 24 hrs followed by replating and further incubated for 24 hrs
Format: functional
TEST CONDITIONS: ATCC 6538, 24 h

Example entries begin here.
Input: For the molecule CC(=O)N[C@@H](CCCCN)c1nc(C)sc1C(=O)N[C@@H](C)c1nc(CCCCN)sc1C(=O)N[C@@H](C)c1nc(C)sc1C(N)=O , what MBC is on record?
Output: > 150 µM

Input: For the molecule CC(=O)N[C@@H](CCCCN)c1nc(C)sc1C(=O)N[C@@H](C)c1nc(C)sc1C(=O)N[C@@H](C)c1nc(CCCCN)sc1C(=O)N[C@@H](C)c1nc(C)sc1C(=O)N[C@@H](C)c1nc(CCCCN)sc1C(=O)N[C@@H](CCCCN)c1nc(C)sc1C(=O)N[C@@H](C)c1nc(CCCCN)sc1C(=O)N[C@@H](CCCCN)c1nc(C)sc1C(=O)N[C@@H](C)c1nc(C)sc1C(=O)N[C@@H](C)c1nc(C)sc1C(=O)N[C@@H](C)c1nc(CCCCN)sc1C(=O)N[C@@H](CCCCN)c1nc(C)sc1C(N)=O , what MBC is on record?
Output: > 100 µM

Input: For the molecule CC(=O)N[C@@H](CCCCN)c1nc(C)sc1C(=O)N[C@@H](C)c1nc(CCCCN)sc1C(=O)N[C@@H](C)c1nc(C)sc1C(=O)N[C@@H](CCCCN)c1nc(C)sc1C(=O)N[C@@H](C)c1nc(CCCCN)sc1C(=O)N[C@@H](C)c1nc(C)sc1C(N)=O , what MBC is on record?
Output: > 150 µM

Now consider the entry below.
Input: For the molecule CC(=O)N[C@@H](CCCCN)c1nc(C)sc1C(=O)N[C@@H](C)c1nc(CCCCN)sc1C(=O)N[C@@H](C)c1nc(C)sc1C(=O)N[C@@H](CCCCN)c1nc(C)sc1C(=O)N[C@@H](C)c1nc(CCCCN)sc1C(=O)N[C@@H](C)c1nc(C)sc1C(=O)N[C@@H](CCCCN)c1nc(C)sc1C(=O)N[C@@H](C)c1nc(CCCCN)sc1C(=O)N[C@@H](C)c1nc(C)sc1C(N)=O , what MBC is on record?
Output: > 150 µM

Origin of the recorded values: ChEMBL document CHEMBL4619808
